biological target: HLA-B*45:06; experiment: IEDB peptide-MHC binding, purified MHC/competitive/fluorescence; filed as Kd, often an IC50 or EC50 that approximates it; bounds were set here for any values at or beyond the usual limits of such assays; conditions: source organism: Mammarenavirus lassaense
measureName: Kd

Task item: Given `SERFINYAI` , respond with its Kd.
Reply: ≥ 5 µM

###

target: HLA-B*57:01; assay: IEDB peptide-MHC binding, purified MHC/direct/fluorescence; filed as Kd, often an IC50 or EC50 that approximates it; bounds were set here for any values at or beyond the usual limits of such assays; settings: source organism: Salmonella enterica
pKd: −log10 of the molar value.
measureName: pKd

Task item: Annotate the sequence `FPASHMATY` with its measured pKd.
Reply: ≤ 4.70

###

biological target: HLA-A*11:01; experiment: IEDB peptide-MHC binding, purified MHC/competitive/radioactivity; filed as Kd, often an IC50 or EC50 that approximates it; bounds were set here for any values at or beyond the usual limits of such assays; conditions: source organism: Dengue virus 2 Jamaica/1409/1983
measureName: pKd
Friendly reminder that pKd comes from taking -log10 of the concentration in mol/L.

Task item: Return the recorded pKd value; entry: `AVAPSMTMR`
Reply: 7.48

Task item: Answer with the recorded pKd of `ISQGAGWSLK` only.
Reply: 6.67

###

molecular target: HLA-C*14:02; experiment: IEDB peptide-MHC binding, purified MHC/direct/fluorescence; filed as Kd, often an IC50 or EC50 that approximates it; bounds were set here for any values at or beyond the usual limits of such assays; settings: source organism: Pan troglodytes
pKd: −log10 of the molar value.
measureName: pKd

Task item: Give recorded pKd. `YYFSYPLFV`
Reply: ≥ 9.00

###

target: HLA-B*39:01; experiment: IEDB peptide-MHC binding, purified MHC/competitive/fluorescence; filed as Kd, often an IC50 or EC50 that approximates it; bounds were set here for any values at or beyond the usual limits of such assays; details: source organism: Vaccinia virus WR
measureName: pKd
Reminder that pKd means the negative base-10 logarithm of the concentration expressed in mol/L.

Task item: Fill in reported pKd for this entry: `YPAVINSNI`
Reply: 5.55

###

target: HLA-B*39:01; assay: IEDB peptide-MHC binding, purified MHC/direct/fluorescence; filed as Kd, often an IC50 or EC50 that approximates it; bounds were set here for any values at or beyond the usual limits of such assays; settings: source organism: Mycobacterium tuberculosis variant bovis BCG str. Pasteur 1173P2
measureName: pKd
API: returns pKd as number; meaning -log10 of concentration in mol/L.

Task item: Give pKd for the following sequence: `QETWTRLVL`
Reply: 6.97

###

target: HLA-B*46:01; assay: IEDB peptide-MHC binding, purified MHC/competitive/fluorescence; filed as Kd, often an IC50 or EC50 that approximates it; bounds were set here for any values at or beyond the usual limits of such assays; conditions: source organism: Entamoeba histolytica HM-1:IMSS
measureName: Kd

Task item: Indicate the recorded Kd value for this sequence: `IGKMNKHYK`
Reply: ≥ 20 µM

###

molecular target: HLA-A*01:01; test: IEDB peptide-MHC binding, purified MHC/competitive/fluorescence; filed as Kd, often an IC50 or EC50 that approximates it; bounds were set here for any values at or beyond the usual limits of such assays; conditions: source organism: Homo sapiens
measureName: pKd
# pKd is unitless: minus log10 of the molar concentration; print number only

Task item: Provide pKd, tested on HLA-A*01:01, for `MLYPRVWPY` .
Reply: 5.97
